FYI, the data here is from ChEMBL document CHEMBL1147803.

Target: Sphingosine 1-phosphate receptor 3 (Homo sapiens, UniProt Q99500)
Sequence (Q99500 whole entry): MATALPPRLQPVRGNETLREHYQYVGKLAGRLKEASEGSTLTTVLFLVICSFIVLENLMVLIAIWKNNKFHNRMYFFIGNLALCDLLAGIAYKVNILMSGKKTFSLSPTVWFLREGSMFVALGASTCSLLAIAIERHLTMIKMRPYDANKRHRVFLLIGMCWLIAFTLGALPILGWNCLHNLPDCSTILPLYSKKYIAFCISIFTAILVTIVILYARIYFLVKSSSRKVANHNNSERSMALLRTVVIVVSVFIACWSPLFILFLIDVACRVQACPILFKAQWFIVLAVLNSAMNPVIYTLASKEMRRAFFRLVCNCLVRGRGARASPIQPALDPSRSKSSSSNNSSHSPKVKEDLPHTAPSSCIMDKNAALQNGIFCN
Assay: Activity at S1P3 receptor by [35S]GTP-gammaS binding assay
Assay type: functional
Details: filed as agonist
READOUT_LABEL: Activity

# example entries with known answers
* O=C(O)C[C@@H]1CC[C@H](c2ccc(-c3noc(-c4ccc([C@H]5CCC(F)(F)C5)cc4)n3)cc2)N1 (racemic) | Agonist
* O=C(O)C[C@@H]1CC[C@H](c2ccc(-c3noc(-c4ccc([C@@H]5CCC(F)(F)C5)cc4)n3)cc2)N1 (stereo in doubt; form 1) | Agonist
* CC(C)Cc1ccc(-c2nc(-c3ccc([C@H]4CC[C@@H](CCC(=O)O)N4)cc3)no2)cc1 (racemic) | Agonist
* CC(C)Cc1ccc(-c2nc(-c3ccc([C@@H]4CC[C@@H](C(=O)O)N4)cc3)no2)cc1 (racemic) | Agonist
* CC(C)Cc1ccc(-c2nc(-c3ccc([C@@H]4CC[C@@H](CC(=O)O)N4)cc3)no2)cc1 (racemic) | Agonist

Request the reported Activity associated with CC(C)Cc1ccc(-c2nc(-c3ccc([C@@H]4CC[C@@H](CCC(=O)O)N4)cc3)no2)cc1 (racemic)
Agonist
